- test.details: clearance of mutant huntingtin inclusions, primary screen, imaging, HeLa Exon1htt(103Q)mCFP, confocal imaging (AID 853);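 further: cells exposed to compound for three days before fixation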
- assay.setup: aggregate imaging, at 1.5 µM; stronger effect = higher value, zero = plate's median compound well
Out of some 47,000 compounds screened, about 200 (0.43%) were called active. Another 1% or so got no clear call; they are omitted. Shown is part of a subset that was picked to be rich in actives.
Recorded measurements of inhibition, one per entry
Unit % implied. Number only.

Examples with answers:
> print(dat)
                                   compound  observation.type  measurement
1  COc1cc(C2CC(=O)c3cnc(NC(C)=O)nc3C2)cc(OC)c1OC (stereo unspecified)        inhibition        -57.9
2   C=CCNC(=S)NNc1ncnc2sc3c(c12)CC(C)(C)OC3        inhibition        -39.2
3            CCCCCCNC(=O)CSc1nccn1Cc1ccccc1        inhibition          7.5

Query :: What does the data say about its inhibition? Entry: "Cc1sc2nc(SCC(N)=O)n(C)c(=O)c2c1C"
Result :: -1.9

Query :: Query: inhibition; subject: "CC(=O)c1cccc(NC(=O)c2ccncc2)c1"
Result :: 20.4

Query :: What does the record list as inhibition for "CCOC(=O)c1cnc(SCC(=O)Nc2ccccc2C(=O)OC)nc1N" ?
Result :: -16.8

Query :: Any idea what inhibition was measured for "Cc1c(NC(=O)c2cc(-c3ccc(Cl)s3)nc3ccccc23)c(=O)n(-c2ccccc2)n1C" ?
Result :: 21.8

Query :: GET /values?readout=inhibition&item= "Cc1nc(-c2ccccc2)sc1-c1nc(-c2ccccc2)ncc1S(=O)(=O)c1ccccc1"
Result :: 7.6

====

Catalogue of fraction fluorescence in grains readings, one per entry.
- test.details: clearance of mutant huntingtin inclusions, primary screen, imaging, HeLa Exon1htt(103Q)mCFP, confocal imaging (AID 853);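 further: cells exposed to compound for three days before fixation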
- assay.setup: aggregate imaging, at 1.5 µM; measured here: aggregate grain fluorescence fraction, stronger effect = lower value
Hit rate of the full screen: of about 47,000 compounds, about 200 (0.43%) were called active. Inconclusive results (about 1%) are left out. For the sample, actives were picked, then their nearest neighbours and some compounds at random.
Form field (numeric): enter value without unit.

Consider the reported fraction fluorescence in grains for these molecules:
> print(dat)
                                   molecule  measurement
1  CCC(c1nnnn1Cc1ccco1)N(CCc1ccccc1)Cc1cc2ccc(OC)cc2[nH]c1=O (stereo not given)         19.4
2  CCC(c1nnnn1Cc1ccco1)N(Cc1cc2cc(OC)ccc2[nH]c1=O)C1CCCCC1 (stereo not given)         12.1
3              Cc1cccc2c(=O)n3c(nc12)CCCCC3         18.2
4  CCC(c1nnnn1Cc1ccco1)N(CCc1ccccc1)Cc1cc2cccc(C)c2[nH]c1=O (stereo not given)         4.66

Query :: Returns the measured fraction fluorescence in grains for the input molecule. Input: CCC(c1nnnn1Cc1ccccc1)N(Cc1cc2cc(OC)ccc2[nH]c1=O)CC1CCCO1 (stereo not given)
Result :: 3.01

Query :: Request the reported fraction fluorescence in grains associated with "Fc1cnc(N2CCOCC2)nc1NCc1ccccc1"
Result :: 12.4

Query :: // query fraction fluorescence in grains value for entry CCC(c1nnnn1C1CCCC1)N(Cc1cccs1)Cc1cc2cccc(C)c2[nH]c1=O (stereo not given)
Result :: 14.9
